system: MM491; experiment: Cytotoxicity assay, primary mesothelioma MM491; format: cell-based, Human; details: biphasic, 72 h, SBR assay; read-out: IC50 ± SD MM491
endpointName: pIC50
Scale: negative log10 of molar concentration, which is what pIC50 denotes.

compound	pIC50
O=c1[nH]cc(F)c(=O)[nH]1	4.36

Quick check: pIC50 on MM491, item N.N.[Cl][Pt][Cl] [Cisplatin] ? 5.19

---

test system: NCI-H460; test: Cytotoxicity assay (SRB, 72 h) NCI-H460; assay type: cell-based, Human; conditions: Homo sapiens, NCI-H460; 72 h, SRB assay; read-out: IC50 ± SD NCI-H460
endpointName: IC50 (nM)
# number only, unit nM dropped from output

Consider the worked cases shown below.
CCc1c2c(nc3ccc(OC(=O)N4CCC(N5CCCCC5)CC4)cc13)-c1cc3c(c(=O)n1C2)COC(=O)[C@]3(O)CC 2400
CC[C@@]1(O)C(=O)OCc2c1cc1n(c2=O)Cc2c-1nc1ccc(O)cc1c2C=NOCCCCCC(=O)NO 270
CC[C@@]1(O)C(=O)OCc2c1cc1n(c2=O)Cc2c-1nc1ccccc1c2C=NOCCCCCCC(=O)NO 198
CC[C@@]1(O)C(=O)OCc2c1cc1n(c2=O)Cc2c-1nc1ccccc1c2C=NOCCCCCC(=O)NO 23
CC[C@@]1(O)C(=O)OCc2c1cc1n(c2=O)Cc2c-1nc1ccccc1c2C=NOCCCCCCNC(=O)CS 100

Let us move to another entry and its IC50.
Any idea what its IC50 is? The compound is CC[C@@]1(O)C(=O)OCc2c1cc1n(c2=O)Cc2c-1nc1ccccc1c2C=NOCC(=O)NO 360
